The reported numbers originate from ChEMBL document CHEMBL1921720.

- Tested on: Escherichia coli
- measurement protocol: Antibacterial activity against Escherichia coli at 200 ug/mL after 24 hrs by agar cup diffusion method
- Type: functional
- applied conditions: read-out: DIZ
Measured zone of inhibition at 200 µg/mL accompanies every entry in the list below.

compound: C=C1CC[C@H](OC(C)=O)[C@@]2(C)[C@@H](OC(=O)CC(C)C)C[C@@H](OC(C)=O)[C@]3(CO3)[C@@H]2[C@H](OC(C)=O)[C@]2(O)[C@@H](C)C(=O)O[C@H]2[C@H]1Cl
experimental system: Escherichia coli
zone of inhibition at 200 µg/mL: 14 mm
//
compound: C=C1CC[C@H](OC(C)=O)[C@@]2(C)[C@@H](OC(C)=O)[C@@H](OC(C)=O)[C@@H](OC(C)=O)[C@]3(CO3)[C@@H]2[C@H](OC(C)=O)[C@]2(O)[C@@H](C)C(=O)O[C@H]2[C@H]1Cl [GEMMACOLIDE A]
experimental system: Escherichia coli
zone of inhibition at 200 µg/mL: 20 mm
//
compound: CC(=O)OCC1=C/[C@@H]2OC(=O)[C@H](C)[C@@]2(O)[C@@H](OC(C)=O)[C@H]2[C@@]3(CO3)[C@H](OC(=O)CC(C)C)C[C@H](OC(=O)CC(C)C)[C@]2(C)[C@@H](OC(C)=O)/C=C\1
experimental system: Escherichia coli
zone of inhibition at 200 µg/mL: 15 mm
//
compound: C=C1CC[C@H](OC(C)=O)[C@@]2(C)[C@@H](OC(C)=O)[C@@H](OC(=O)CC(C)C)[C@@H](OC(C)=O)[C@]3(CO3)[C@@H]2[C@H](OC(C)=O)[C@]2(O)[C@@H](C)C(=O)O[C@H]2[C@H]1Cl [GEMMACOLIDE B]
experimental system: Escherichia coli
zone of inhibition at 200 µg/mL: 20 mm
//
compound: CC1(C)S[C@@H]2[C@H](NC(=O)[C@H](N)c3ccccc3)C(=O)N2[C@H]1C(=O)O
experimental system: Escherichia coli
zone of inhibition at 200 µg/mL: 17 mm
